Consider the following compounds; for each one, report its Papp.
Test: Permeability of the compound by BBB-PAMPA-LC-UV analysis
Format: physicochemical
Please state the figure in ×10⁻⁶ cm/s; there is no need to write the unit.

Query :: Identify Papp associated with the compound Nc1ncnc2c1c(-c1ccc(F)cc1)nn2CC(Cl)c1ccccc1 (stereo not given)
Result :: 12.9

Query :: Identify Papp associated with the compound Nc1ncnc2c1c(-c1ccc(Cl)cc1)nn2CC(Cl)c1ccccc1 (stereo not given)
Result :: 8.4

Query :: Identify Papp associated with the compound Nc1ncnc2c1c(-c1ccccc1)nn2CC(Cl)c1ccccc1 (stereo not given)
Result :: 9.5

Query :: Identify Papp associated with the compound COc1ccc(-c2nn(CC(Cl)c3ccccc3)c3ncnc(N)c23)cc1 (stereo not given)
Result :: 14.5

Query :: Identify Papp associated with the compound Cc1ccc(-c2nn(CC(Cl)c3ccccc3)c3ncnc(N)c23)cc1 (stereo not given)
Result :: 11.5
